Each entry below lists one item and its recorded growth inhibition value.
- EXPERIMENTAL DETAILS: NCI Yeast Anticancer Drug Screen. Data for the rad50 strain (AID 155);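 further: 0% = growth of vehicle-only cultures of the same strain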
- MEASUREMENT CONTEXT: S. cerevisiae rad50 strain growth inhibition; at 11.0 µM; active compounds read high
The panel holds about 79,000 compounds, 15% with a hit somewhere; the sample as a whole holds those more often. Active and inactive are the calls of the source. No stated cut-off is given here; in the data, active means growth inhibition above about 70%; inactive means the rest.
READOUT NAME: growth inhibition

| COMPOUND | READOUT NAME | RESULT |
| --- | --- | --- |
| O=C(O)c1ccccc1-c1ccccc1C(=O)Nc1ccc2c(c1)Cc1ccccc1-2 | growth inhibition | 23% (inactive) |
| C/C(=N\NC(=S)SCc1ccccc1)c1ccccn1 | growth inhibition | 69% (inactive) |
| COc1ccc(N=C2C(=O)Nc3ccc(Br)cc32)cc1 | growth inhibition | -23% (inactive) |
| O=C(/C=C/c1cccc(Br)c1)c1cccs1 | growth inhibition | 83% (active) |
| NC1=NS(=O)(=O)N=C(N)C1=Cc1ccc([N+](=O)[O-])o1 | growth inhibition | 42% (inactive) |
| CCCCCCCCCCC(=O)Cl | growth inhibition | 2% (inactive) |
| CC1=C(C)Cc2c(O)ccc(O)c2C1 | growth inhibition | 38% (inactive) |
| Cn1c(=O)c(-c2ccccc2)c(N=[N+]=[N-])c2ccccc21 | growth inhibition | 20% (inactive) |
| C=CC(C)(O)CCC1C(=C)C(O)CC2C(C)(C)CCCC12C (configuration not stated) | growth inhibition | 19% (inactive) |
| c1ccc2c(c1)C(=NCCCN1CCCCCC1)c1cccn1-2 | growth inhibition | -9% (inactive) |
| CCOC(=O)C(NC(=O)c1ccccc1)(N1CCN(c2cc3c(cc2F)c(=O)c(C(=O)O)cn3C2CC2)CC1)C(F)(F)F (configuration not stated) | growth inhibition | 14% (inactive) |
| OC(COc1cccc2ccccc12)CN1CCOCC1 (configuration not stated) | growth inhibition | 42% (inactive) |

* * *

Each entry below lists one item and its recorded growth inhibition value.
- EXPERIMENTAL DETAILS: NCI Yeast Anticancer Drug Screen. Data for the mlh1 strain (AID 171);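 further: 0% = growth of vehicle-treated control cultures of the same strain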
- MEASUREMENT CONTEXT: S. cerevisiae mlh1 strain growth inhibition; at 33.0 µM; active compounds read high
This is part of a sample that, as a whole, favours compounds with a hit. Of some 79,000 tested, about 15% had one in any assay.
READOUT NAME: growth inhibition (%)

| MOLECULE | READOUT NAME | OUTPUT UNIT | QUANTITATIVE READOUT |
| --- | --- | --- | --- |
| CCCCCCCCCCC(=O)Cl | growth inhibition | % | 2 |
| COC1=CC(=O)C2C(C1=O)C(c1ccc(Cl)cc1)[C@@H]2C (stereo partly specified) | growth inhibition | % | 99 |
| Cc1ccc(S(=O)(=O)NC(=O)NC2=NC(C)(C)N(c3ccc(Cl)c(Cl)c3)C(N)=N2)cc1 | growth inhibition | % | 1 |
| COc1cc2c(c(OC)c1OC)-c1c(cc3c(c1OC)OCO3)CC(C)C(C)(O)C2OC(=O)c1ccccc1 (stereo unspecified) | growth inhibition | % | -9 |
| Clc1cccc(C(Nc2nncs2)Nc2nncs2)c1Cl | growth inhibition | % | 16 |
| CCN(CC)CCC(=O)c1ccc(Oc2ccc(F)cc2)cc1 | growth inhibition | % | 73 |
